molecular target: human IL-13 wild type (human, UniProt P35225 35-146); test: cell-based or functional assay
Sequence (P35225 other isoform, or with tags, fused parts or gaps limits assumed): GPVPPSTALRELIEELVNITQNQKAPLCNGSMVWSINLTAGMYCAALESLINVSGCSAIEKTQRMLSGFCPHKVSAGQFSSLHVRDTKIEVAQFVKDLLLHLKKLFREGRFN
Entries and their measured Average IC50, IL-13-induced TARC production by A-549 cells follow.
// return numeric value only (unit: pM, not printed)

>  <BINDER>
5D3 (antibody, V domains shown) VH: QVQLKESGPGLVAPSQSLSITCTVSGFSLTGYNINWVRQPPGKGLEWLGLIWGDGNTAFNSALKSRLSISKDNSKSQVFLKLNSLQTDDTARYYCARDGYYPYAIKYWGQGTSVTVSS VL: NIVLTQSPASLAVSLGQRATISCRASETVDSYGNSFMHWYQQKPGQPPKLLIYLASNLESGVPARFSGSGSRTDFTLTIDPVEADDAATYYCQQNNEDPRTFGGGTKLEIKR

>  <OBS_VALUE>
705

$$$$
>  <BINDER>
13C5 (antibody, V domains shown, also called murine 13C5) VH: QVTLKESGPGILQPSQTLSLTCSFSGFSLSTSDMGVDWIRQPSGKGLEWLAHIWWDDVKRYNPALKSRLTISKDTSSSQVFLMLASVDTADTATYYCARTVSSGYIYYAMDYWGQGTSVTVSS VL: DIQMTQTASSLSASLGDRVTISCRASQDIRNYLNWYQRKPDGTVKLLIFYTSKLHSGVPSRFSGSGSGTDYSLTIRNLEQEDIATYFCQQGNTLPLTFGGGTKLEIKR

>  <OBS_VALUE>
190

$$$$
>  <BINDER>
29G5 (antibody, V domains shown) VH: QVTLKESGPGILQPSQTLSLTCSFSGFSLSTSDMGVDWIRQPSGKDLEWLAHIWWDDVKRYNPALKSRLTISKDTSSSQVFLMLASVDTADTATYYCARIVSSGYIYYALDYWGQGTSVTVSS VL: DIQMTQTASSLSASLGDRVTISCRASQDIRNYLNWYQRKPDGTVKLLIYYTSRLHSGVPSRFSGSGSGTDYSLTISNLEQEDIATYFCQQGNTLPLTFGGGTKLEIKR

>  <OBS_VALUE>
290

$$$$
>  <BINDER>
6C8 (antibody, V domains shown) VH: QVQLKESGPGLVAPSQSLSITCTVSEFSLTGSSVNWVRQPPGKGLEWLGMIWGDGRIDYNSALKSRLSISKDNSKSQVFLKMNSLQTDDTARYYCARDGYYPYAMNYWGQGTSVTVSS VL: NIVLTQSPASLAVSLGQRATISCRASESVDSYGNSFMHWYQQKPGQPPKLLIYLASNLESGVPARFSGSGSRADFTLTIDPVEADDAATYYCQQNNENPRTFGGGTKLEIKR

>  <OBS_VALUE>
720

$$$$

# context switch: different binder, same Average IC50, IL-13-induced TARC production by A-549 cells
Exercise: Find the recorded Average IC50, IL-13-induced TARC production by A-549 cells belonging to 33C3 (antibody, V domains shown) VH: QVTLKESGPGILQPSQTLSLTCSFSGFSLSTSDLGVGWIRQPSGKGLEWLAHIWWDDVKRYNPALKSRLTISKDTSSSQVFLMIASVDTADTATYYCARIGSSGYIYYEMDYWGQGTSVTVSS VL: DIQMTQTTSSLSASLGDRVTITCRASQDIRNYLNWYQQKPDGTVKLLIYYTSRLHSGVPSRFSGSGSGTDYSLTISNLDQEDIATYFCQQGNTLPLTFGGGTRLEIKR and report it.
Solution: 150
